system: CCRF-CEM; assay: NCI-60 single dose screen, sulforhodamine B; type: cell-based, human; details: Leukaemia CCRF-CEM; single dose 10^−5 M
measured endpoint: GI% at 10^−5 M

compound structure: O=c1c2ccccc2nc(COc2ccccc2)n1NS(=O)(=O)c1ccccc1
measured endpoint: GI% at 10^−5 M
measured value: – (– means GI < 10%)
--
compound structure: COc1cc(C=Nn2c(COc3ccccc3)nc3ccccc3c2=O)ccc1O
measured endpoint: GI% at 10^−5 M
measured value: – (– means GI < 10%)
--
compound structure: COc1ccc(NC(=O)CNn2c(COc3ccccc3)nc3ccccc3c2=O)cc1
measured endpoint: GI% at 10^−5 M
measured value: – (– means GI < 10%)
--
compound structure: O=c1c2ccccc2nc(COc2ccccc2)n1N=CC=Cc1ccccc1
measured endpoint: GI% at 10^−5 M
measured value: 15.66%
